Provenance of the data: the supplement of paper PMC9942255

Reported AmyQ secretion efficiency is given for each of the following sequences.
test system: Bacillus subtilis DB104 (SP-AmyQ fusion secretion); test: AmyQ secretion efficiency, weighted average sort bin (1 = best secretion, 10 = worst) (bin number (weighted average, 1-10)); higher = lower secretion efficiency

{"Record sequence": "MKKVLMAFIICLSLILSVLAAPPSGAKAAED", "AmyQ secretion efficiency": 3.24}
{"Record sequence": "MKQGKFSVKKRKLLMLTLVVAPKEKAEAASS", "AmyQ secretion efficiency": 8.14}
{"Record sequence": "MKKSRRALLLLLFAFEPSASGKKL", "AmyQ secretion efficiency": 7.28}
{"Record sequence": "MAIIIAIIAAVIVIAALITFRRRNASPG", "AmyQ secretion efficiency": 8.26}
{"Record sequence": "MFNRLFRVCFLAALIMAFTLPNSVYLQKP", "AmyQ secretion efficiency": 6.77}
{"Record sequence": "MKKRKRRNFKRFIAAFLVLALMISLVPADVLGKST", "AmyQ secretion efficiency": 3.14}
{"Record sequence": "MKSKGSIMACLILFSFTITTFINTETWSAFSN", "AmyQ secretion efficiency": 7.56}
{"Record sequence": "MRSYIKVLTMCFLGLILFVPTCLADNS", "AmyQ secretion efficiency": 2.04}
{"Record sequence": "MKKWIYVVLVLSIAGIGGFSVHAASR", "AmyQ secretion efficiency": 5.28}
{"Record sequence": "MKKAFLVFLSVVLVTTVFLTSSFLVKQQESVAQAKQL", "AmyQ secretion efficiency": 4.08}
{"Record sequence": "MNIKKFAKQATVLTFTTALLAGGATQAFAATE", "AmyQ secretion efficiency": 1.07}
{"Record sequence": "MTKLKMLSMLTVMIASLFIFSSQALAKRK", "AmyQ secretion efficiency": 4.03}
{"Record sequence": "MKLWMRKTLVVLFTIVTFGLVSPPAAMMADKP", "AmyQ secretion efficiency": 1.82}
{"Record sequence": "MKQGKFSVFLILLLMLTLVVAPKEKCEAASS", "AmyQ secretion efficiency": 1.62}
{"Record sequence": "MKRKSMSFSLSNLLSSLAISALSLGLLVSAPTASFAAES", "AmyQ secretion efficiency": 2.5}
{"Record sequence": "MTMLRKIIGWILLLCIIPLFAFTVIVSGKEV", "AmyQ secretion efficiency": 5.52}
{"Record sequence": "MKQRRIMIFLTSFMLLAMTGQTALAKDV", "AmyQ secretion efficiency": 3.05}
{"Record sequence": "MKKQIITATTAVVLGSTLFAKKRASAQSI", "AmyQ secretion efficiency": 7.26}
{"Record sequence": "MRSYIKVLTMCFLGLILFVVIATVSAIPTALADNS", "AmyQ secretion efficiency": 2.02}
{"Record sequence": "MRSYIKVLTMCFLGLILFVEEDALADNS", "AmyQ secretion efficiency": 2.58}
{"Record sequence": "MMKKGLLAGALTATVLFRKCAVRVPGIISPKTAEAASQ", "AmyQ secretion efficiency": 6.57}
{"Record sequence": "MNLRKIKKSSALSLGMLVSAAPVLATSS", "AmyQ secretion efficiency": 5.42}
{"Record sequence": "MKKKLAAGLTASAVTPAEAATI", "AmyQ secretion efficiency": 6.26}
{"Record sequence": "MMRIRIPMTLALGAALTIAPLSFASAEEN", "AmyQ secretion efficiency": 2.92}
{"Record sequence": "MGLGKKGTYRVAASFMSLSISLPGVQAAEG", "AmyQ secretion efficiency": 4.07}
{"Record sequence": "MKKAFILSAAAAVGLFTFGGVQQFSAKEL", "AmyQ secretion efficiency": 5.1}
{"Record sequence": "MKVCQKSIVRTNFLVSLIIGTFVISVPFMANAQSD", "AmyQ secretion efficiency": 2.34}
{"Record sequence": "MKRIRIPMTLALGAALTIAPLSFASWEEN", "AmyQ secretion efficiency": 6.97}
{"Record sequence": "MKKRKRRFLLVSFVLFFALSTGITGVQAAPA", "AmyQ secretion efficiency": 2.95}
{"Record sequence": "MGMKKKLSLGVASAAGGTWAAFN", "AmyQ secretion efficiency": 8.23}
{"Record sequence": "MAIIIAIIAAVIVIAALITFKKRRKRNASPG", "AmyQ secretion efficiency": 8.46}
{"Record sequence": "MKVLLSALLLLLFARRKSASGKKL", "AmyQ secretion efficiency": 7.09}
{"Record sequence": "MKKKLAAGLTASAIVGTTLVVTPAEVATI", "AmyQ secretion efficiency": 6.56}
{"Record sequence": "MRFTKVVGFLSVLGLAAVFPLTAQGEKA", "AmyQ secretion efficiency": 2.12}
{"Record sequence": "MIAYFGKCLLLVTIMFLGVLFGMFQANHG", "AmyQ secretion efficiency": 6.57}
{"Record sequence": "MRIFKKAVFVIMISFLIATVNVNTAHAEDD", "AmyQ secretion efficiency": 3.86}
{"Record sequence": "MTMLRKIIGWILLLCIIPLFAFTVIASAKEV", "AmyQ secretion efficiency": 4.98}
{"Record sequence": "MKSLPYTIALLFCGLIIVSMAAKGHKK", "AmyQ secretion efficiency": 6.13}
{"Record sequence": "MKLAKRVSALTPSTTLAITAKTKEL", "AmyQ secretion efficiency": 7.68}
{"Record sequence": "MLKKKWMVGLLAGCLAAGGFSYNAFATKK", "AmyQ secretion efficiency": 4.27}
{"Record sequence": "MKLSVKIAGVLTVAAAAMTAKMYATFTGTFAATAKGN", "AmyQ secretion efficiency": 7.49}
{"Record sequence": "MKTKTGFIFSAILTLSIFAPNETFAQTA", "AmyQ secretion efficiency": 1.63}
{"Record sequence": "MKLAKRVSALTPSTTLAIVAKAKEL", "AmyQ secretion efficiency": 6.85}
{"Record sequence": "MKLKSKLLLSCLALSTVFVATTIANAKRR", "AmyQ secretion efficiency": 7.22}
{"Record sequence": "MLKKKWMVGLLAGCLAAGGAFATEN", "AmyQ secretion efficiency": 6.32}
{"Record sequence": "MRIFKKAVFVIMISFLIATVNVNTAHAKKR", "AmyQ secretion efficiency": 2.09}
{"Record sequence": "MKVLLSALLLLLFAFEPSISGKKL", "AmyQ secretion efficiency": 7.18}
{"Record sequence": "MKRIRIPMTLALGAALTIAPLSFNSAEEN", "AmyQ secretion efficiency": 7.4}
{"Record sequence": "MKVLLSALLLLLFAFEPSYSGKKL", "AmyQ secretion efficiency": 5.87}
{"Record sequence": "MGLGKKLSVAVAASFMSLSISLPGVQARKR", "AmyQ secretion efficiency": 6.96}
{"Record sequence": "MRGKSAVLLSLIMLIAGFLIHFSFQM", "AmyQ secretion efficiency": 6.42}
{"Record sequence": "MKLKKRVSMFRKKKRKCGGLFVTPAKAVKT", "AmyQ secretion efficiency": 7.44}
{"Record sequence": "MRKKLKWLSFLLGFIILLFLFKKKFSNNDS", "AmyQ secretion efficiency": 7.77}
{"Record sequence": "MKRIRIPMTLALGAALTIAPLSFASQEEN", "AmyQ secretion efficiency": 7.06}
{"Record sequence": "MTIFLMAVFVIMISFLIATVNVNTAHAAID", "AmyQ secretion efficiency": 6.34}
{"Record sequence": "MKRIRIPMTLALGAALTIAPLSFASKEEN", "AmyQ secretion efficiency": 6.64}

* * *

tested on: Bacillus subtilis DB104 (SP-AmyQ fusion secretion); experiment: AmyQ secretion efficiency, weighted average sort bin (1 = best secretion, 10 = worst) (bin number (weighted average, 1-10)); higher = lower secretion efficiency

{"Record sequence": "MKKRKRRNFKRFIAAFLVLALMISLVPADVLKKST", "AmyQ secretion efficiency": 6.16}
{"Record sequence": "MNLRKIILLSSALSLGMLVSAAPVLATSS", "AmyQ secretion efficiency": 2.82}
{"Record sequence": "MKKMSNSTNSMSVLMAFIICLSLILSVLAAPPSGAKAESV", "AmyQ secretion efficiency": 1.73}
{"Record sequence": "MKKRLIGFLVLVPALIMSGITLIEARKK", "AmyQ secretion efficiency": 7.62}
{"Record sequence": "MKKTIMSFVAVAALSTTAFGAHASTKEI", "AmyQ secretion efficiency": 5.13}
{"Record sequence": "MKRIRIPMTLALGAALTIAPLSFASAAPK", "AmyQ secretion efficiency": 1.85}
{"Record sequence": "MKKRITYSLRRLLAVVAFAFTDSSKAKAAEA", "AmyQ secretion efficiency": 5.28}
{"Record sequence": "MTLGGSVSMFLVALTMCGGLFVTPAKAVKT", "AmyQ secretion efficiency": 3.81}
{"Record sequence": "MKKKLAAGLTASAIVGTTLVVTPAECATI", "AmyQ secretion efficiency": 4.47}
{"Record sequence": "MPIKKKVMMCKRVTLVFGSMSFPTLTNSGGFKE", "AmyQ secretion efficiency": 6.57}
{"Record sequence": "MPYLKRVLLLLVTGLFMSLFAVTATASAQTK", "AmyQ secretion efficiency": 1.71}
{"Record sequence": "MKKGIIRFLLVSFVLFFALFAFIAFGGGTTVQAAPA", "AmyQ secretion efficiency": 1.86}
{"Record sequence": "MMKKLFHSTLIVLLFFSFFGVQPCHAKKQ", "AmyQ secretion efficiency": 1.69}
